Test system: SW982 (Other Solid Carcinomas)
assay: combination Emax (second highest fraction inhibited in the dose matrix, 72 h); higher = more inhibition; extreme values may be limits of the assay
Measured combination Emax accompanies every entry in the list below.
experimentalReadout: combination Emax

CN(CCO)CC[C@H](CSc1ccccc1)Nc1ccc(S(=O)(=O)NC(=O)c2ccc(N3CCC([C@@H](O)c4ccccc4-c4ccc(Cl)cc4)CC3)cc2)cc1S(=O)(=O)C(F)(F)F [AZD4320] + CS(=O)(=O)CCNCc1ccc(-c2ccc3ncnc(Nc4ccc(OCc5cccc(F)c5)c(Cl)c4)c3c2)o1 [Lapatinib] (first compound max 1 µM, 7x7, partner max 10 µM) | 0.968
C[C@@H]1COCCN1c1cc(C2([S@](C)(=N)=O)CC2)nc(-c2ccnc3[nH]ccc23)n1 [AZD6738] + O=C(c1cc(Cc2n[nH]c(=O)c3ccccc23)ccc1F)N1CCN(C(=O)C2CC2)CC1 [Olaparib] (first compound max 10 µM, 7x7, partner max 10 µM) | 0.781
